Header: pKi / Plasminogen (Homo sapiens, UniProt P00747) / multiple publications
// pKi: -log10(molar conc.)

In the examples that follow, each entry is paired with its recorded pKi.
smiles_code=N=C(N)c1ccc(CC(=O)[C@H](Cc2cccc(CN)c2)NC(=O)[C@@H](CCCc2ccccc2)NS(=O)(=O)Cc2cccc(C(=O)O)c2)cc1 numeric_result=8.66
smiles_code=NCCCC[C@H](NC(=O)CN(CCc1ccccc1)C(=O)CCc1ccccc1)B(O)O numeric_result=6.77
smiles_code=N=C(N)c1cccc(C[C@H](NS(=O)(=O)CCc2cccc3ccccc23)C(=O)N2CCN(C(=O)CCN=C(N)N)CC2)c1 numeric_result=5.38

Value wanted: pKi (Plasminogen (Homo sapiens, UniProt P00747)) of entry N=C(N)c1ccc(OCCCCCOc2ccc(-c3nc4cc(C(=N)N)ccc4[nH]3)cc2)cc1
5.42
